# system tested: T1, his-tagged soluble human OX40 (huOX40-6xhis) (human, UniProt P43489 29-214)
# T1 construct: made in-house; also called Human-OX40-6XHIS; hOX40; not shown: hexahistidine tag
# T1 sequence: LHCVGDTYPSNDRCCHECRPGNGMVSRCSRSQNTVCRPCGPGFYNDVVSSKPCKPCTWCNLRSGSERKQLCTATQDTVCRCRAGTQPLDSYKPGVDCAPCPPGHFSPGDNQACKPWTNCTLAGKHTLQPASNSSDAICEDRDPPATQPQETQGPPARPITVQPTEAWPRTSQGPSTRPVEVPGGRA
# experimental details: SPR, mAb captured on anti-human CH1, OX40-6XHIS analyte, 1:1 fit
quantity name: koff (s⁻¹)
Give bare numbers, in s⁻¹.

Input line: Which measured koff value corresponds to 20B3 (antibody, V domains shown, also called 20B3.G12.A2; 20B3.G2) VH: EVQLVESGGGLVQPGGSLRLSCAASGFTFSSYDMHWVRQTTGKGLEWVSVIGTAGDTYYPGSVKGRFTISRENAKNSLYLQMNSLRAGDTAVYYCARGGMGNYFDYWGQGTLVTVSS VL: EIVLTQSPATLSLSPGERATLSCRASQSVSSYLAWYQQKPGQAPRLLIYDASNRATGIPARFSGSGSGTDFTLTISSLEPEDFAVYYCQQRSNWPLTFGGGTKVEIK ?
Output line: 0.000201
